metric-name: melting point (°C)
API: value field is a number in °C; no unit string.

CCN1C(=O)N(c2ccc(C#N)c(Cl)c2C)C(=O)C12CCCC2 ... 94
Cc1c(N2C(=O)N(C)C3(CCCC3=O)C2=O)ccc(C#N)c1Cl (racemic) ... 161
Cc1c(N2C(=O)N(CCOCCF)C3(CCCC3)C2=O)ccc(C#N)c1Cl ... 112
Cc1c(N2C(=O)N(C)C3(CCCC3O)C2=O)ccc(C#N)c1Cl (stereo not drawn) ... 188
Cc1cc(CN2C(=O)N(c3ccc(C#N)c(Cl)c3C)C(=O)C23CCCC3)no1 ... 134
Cc1c(N2C(=O)N(CC3CCOC3)C3(CCCC3)C2=O)ccc(C#N)c1Cl (stereo not drawn) ... 70

Given Cc1c(N2C(=O)N(C)C3(CCCC3CO)C2=O)ccc(C#N)c1Cl (stereo not drawn) , respond with its melting point.
157

Given "Cc1c(N2C(=O)N(CCO)C3(CCCC3)C2=O)ccc(C#N)c1Cl" , respond with its melting point.
98

Given Cc1c(N2C(=O)N(C)C3(CCCC3O)C2O)ccc(C#N)c1Cl (mixture of isomers) , respond with its melting point.
179

Given Cc1c(N2C(=O)N(C)C3(CCC(F)C3)C2=O)ccc(C#N)c1Cl (single isomer, unassigned) , respond with its melting point.
162

Given "Cc1c(N2C(=O)N(CC(C)C)C3(CCCC3)C2=O)ccc(C#N)c1Cl" , respond with its melting point.
115

Given "Cc1ccc(CN2C(=O)N(c3ccc(C#N)c(Cl)c3C)C(=O)C23CCCC3)cn1" , respond with its melting point.
177

Given "Cc1c(N2C(=O)N(C)C3(CCC3)C2=O)ccc(C#N)c1Cl" , respond with its melting point.
133

Given "Cc1noc(C)c1CN1C(=O)N(c2ccc(C#N)c(Cl)c2C)C(=O)C12CCCC2" , respond with its melting point.
109

Given "Cc1c(N2C(=O)N(Cc3ccc(C#N)cc3)C3(CCCC3)C2=O)ccc(C#N)c1Cl" , respond with its melting point.
195

Given "COCCN1C(=O)N(c2ccc(C#N)c(Cl)c2C)C(=O)C12CCCC2" , respond with its melting point.
115

Given "Cc1c(N2C(=N)C3(CCCC3)N(C)C2=O)ccc(C#N)c1Cl" , respond with its melting point.
199

Given Cc1c(N2C(=O)N(C)C3(CCC(=O)C3)C2=O)ccc(C#N)c1Cl (stereo not drawn) , respond with its melting point.
219

Values were extracted from patent US20150299120A1.
